target-of-assay: Leucine-rich repeat serine/threonine-protein kinase 2 (Homo sapiens)
Sequence (Q5S007 whole entry, the tested form may be a part): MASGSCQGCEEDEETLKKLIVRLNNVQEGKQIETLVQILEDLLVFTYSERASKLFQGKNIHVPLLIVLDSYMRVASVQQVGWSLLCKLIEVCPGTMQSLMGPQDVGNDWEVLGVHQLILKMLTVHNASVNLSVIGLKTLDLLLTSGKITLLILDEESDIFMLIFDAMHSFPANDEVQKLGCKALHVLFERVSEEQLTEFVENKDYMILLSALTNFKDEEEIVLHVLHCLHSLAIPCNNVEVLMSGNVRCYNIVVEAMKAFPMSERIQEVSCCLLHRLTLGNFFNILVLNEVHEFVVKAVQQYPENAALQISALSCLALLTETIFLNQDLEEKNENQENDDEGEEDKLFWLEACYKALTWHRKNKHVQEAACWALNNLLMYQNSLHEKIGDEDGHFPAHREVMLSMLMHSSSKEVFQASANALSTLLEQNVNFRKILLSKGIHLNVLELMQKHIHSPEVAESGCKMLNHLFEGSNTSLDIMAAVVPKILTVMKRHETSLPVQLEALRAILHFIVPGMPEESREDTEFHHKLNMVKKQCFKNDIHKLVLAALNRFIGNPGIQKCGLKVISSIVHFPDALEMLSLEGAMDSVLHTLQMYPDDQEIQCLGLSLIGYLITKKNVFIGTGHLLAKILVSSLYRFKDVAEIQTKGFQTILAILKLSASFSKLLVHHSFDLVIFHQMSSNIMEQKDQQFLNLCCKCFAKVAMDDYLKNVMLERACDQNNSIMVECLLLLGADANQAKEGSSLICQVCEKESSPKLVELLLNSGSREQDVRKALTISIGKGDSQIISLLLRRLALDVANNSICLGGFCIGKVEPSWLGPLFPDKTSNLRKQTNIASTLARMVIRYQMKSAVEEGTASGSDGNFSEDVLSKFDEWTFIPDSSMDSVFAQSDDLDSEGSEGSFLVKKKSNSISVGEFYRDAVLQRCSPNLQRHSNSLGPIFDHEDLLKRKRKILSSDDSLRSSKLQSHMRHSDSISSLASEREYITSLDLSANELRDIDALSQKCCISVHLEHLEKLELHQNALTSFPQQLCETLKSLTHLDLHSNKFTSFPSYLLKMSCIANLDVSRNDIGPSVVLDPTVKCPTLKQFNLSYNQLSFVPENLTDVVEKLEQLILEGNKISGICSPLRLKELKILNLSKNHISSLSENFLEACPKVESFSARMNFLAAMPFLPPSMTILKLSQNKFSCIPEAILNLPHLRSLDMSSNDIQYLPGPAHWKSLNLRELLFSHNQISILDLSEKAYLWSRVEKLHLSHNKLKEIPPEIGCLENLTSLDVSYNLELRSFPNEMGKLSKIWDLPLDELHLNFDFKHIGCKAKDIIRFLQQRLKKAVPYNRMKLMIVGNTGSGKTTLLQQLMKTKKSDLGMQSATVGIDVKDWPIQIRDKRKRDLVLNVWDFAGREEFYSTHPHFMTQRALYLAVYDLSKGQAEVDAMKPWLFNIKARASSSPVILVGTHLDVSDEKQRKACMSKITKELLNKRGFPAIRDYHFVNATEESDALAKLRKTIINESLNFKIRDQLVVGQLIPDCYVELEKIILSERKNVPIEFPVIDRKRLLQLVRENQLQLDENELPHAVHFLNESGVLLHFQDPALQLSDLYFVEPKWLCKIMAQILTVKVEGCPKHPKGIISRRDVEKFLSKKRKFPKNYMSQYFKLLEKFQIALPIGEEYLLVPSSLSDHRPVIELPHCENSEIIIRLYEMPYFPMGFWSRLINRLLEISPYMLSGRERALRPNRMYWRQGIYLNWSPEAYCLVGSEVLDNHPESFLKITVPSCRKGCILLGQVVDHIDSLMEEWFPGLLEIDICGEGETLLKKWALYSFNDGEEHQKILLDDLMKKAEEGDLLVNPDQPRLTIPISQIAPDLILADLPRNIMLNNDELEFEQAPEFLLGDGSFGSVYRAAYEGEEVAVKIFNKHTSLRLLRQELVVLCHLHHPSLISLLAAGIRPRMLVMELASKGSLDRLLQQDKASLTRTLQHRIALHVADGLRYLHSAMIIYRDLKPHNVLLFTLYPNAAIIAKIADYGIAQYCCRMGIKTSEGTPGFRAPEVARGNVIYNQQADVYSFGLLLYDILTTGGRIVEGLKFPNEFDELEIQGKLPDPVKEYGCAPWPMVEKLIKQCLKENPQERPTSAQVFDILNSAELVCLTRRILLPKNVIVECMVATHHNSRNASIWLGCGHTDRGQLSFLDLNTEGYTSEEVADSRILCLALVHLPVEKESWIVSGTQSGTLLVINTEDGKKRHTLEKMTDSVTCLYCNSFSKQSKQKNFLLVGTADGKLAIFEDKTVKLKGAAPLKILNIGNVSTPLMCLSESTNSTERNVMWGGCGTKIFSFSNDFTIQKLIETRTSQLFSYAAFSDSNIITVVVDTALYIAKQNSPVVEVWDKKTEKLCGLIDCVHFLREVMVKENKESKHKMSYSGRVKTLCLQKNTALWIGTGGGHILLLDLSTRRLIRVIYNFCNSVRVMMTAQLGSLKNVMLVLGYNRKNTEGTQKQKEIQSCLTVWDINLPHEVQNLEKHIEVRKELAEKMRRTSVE
assay-explanation: Inhibition of recombinant human GST-tagged LRRK2 (970 to 2527 residues) expressed in insect cells using LRRKtide as substrate measured after 1 hr by Adapta TR-FRET assay
IC50 values for the compounds below.
Write the answer as a number in nM, unit excluded.

As a guide, the following entries are already answered.
>  <compound>
CC1(Oc2ccc3[nH]nc(-c4cc(N5CCN(C(=O)CCOCCOCCOCCOCCNc6cccc7c6C(=O)N(C6CCC(=O)NC6=O)C7=O)CC5)ncn4)c3c2)CC1 (centres undefined)

>  <target-of-assay>
Leucine-rich repeat serine/threonine-protein kinase 2 (Homo sapiens)

>  <measurement-units>
nM

>  <endpoint-result>
1

$$$$
>  <compound>
Cc1ncsc1-c1ccc([C@H](C)NC(=O)[C@@H]2C[C@@H](O)CN2C(=O)[C@@H](NC(=O)CCOCCOCCOCCOCCC(=O)N2CCN(c3cc(-c4n[nH]c5ccc(OC6(C)CC6)cc45)ncn3)CC2)C(C)(C)C)cc1

>  <target-of-assay>
Leucine-rich repeat serine/threonine-protein kinase 2 (Homo sapiens)

>  <measurement-units>
nM

>  <endpoint-result>
3

$$$$
>  <compound>
CC1(Oc2ccc3[nH]nc(-c4cc(N5CCN(C(=O)CCOCCOCCNc6cccc7c6C(=O)N(C6CCC(=O)NC6=O)C7=O)CC5)ncn4)c3c2)CC1 (centres undefined)

>  <target-of-assay>
Leucine-rich repeat serine/threonine-protein kinase 2 (Homo sapiens)

>  <measurement-units>
nM

>  <endpoint-result>
1

$$$$
>  <compound>
CC1(Oc2ccc3[nH]nc(-c4cc(N5CCN(C(=O)CCOCCOCCNc6cccc7c6C(=O)N(C6CCCNC6=O)C7=O)CC5)ncn4)c3c2)CC1 (centres undefined)

>  <target-of-assay>
Leucine-rich repeat serine/threonine-protein kinase 2 (Homo sapiens)

>  <measurement-units>
nM

>  <endpoint-result>
2

$$$$

Identify the measured IC50 of CC1(Oc2ccc3[nH]nc(-c4cc(N5CCN(C(=O)CCOCCNc6cccc7c6C(=O)N(C6CCC(=O)NC6=O)C7)CC5)ncn4)c3c2)CC1 (centres undefined) for Leucine-rich repeat serine/threonine-protein kinase 2 (Homo sapiens).
3

Identify the measured IC50 of CC1(Oc2ccc3[nH]nc(-c4cc(N5CCN(C(=O)CCOCCOCCNc6cccc7c6C(=O)N(C6CCC(=O)NC6=O)C7)CC5)ncn4)c3c2)CC1 (centres undefined) for Leucine-rich repeat serine/threonine-protein kinase 2 (Homo sapiens).
3

Identify the measured IC50 of CC1(Oc2ccc3[nH]nc(-c4cc(N5CCN(C(=O)CCOCCNc6cccc7c6C(=O)N(C6CCC(=O)NC6=O)C7=O)CC5)ncn4)c3c2)CC1 (centres undefined) for Leucine-rich repeat serine/threonine-protein kinase 2 (Homo sapiens).
2

Identify the measured IC50 of CC1(Oc2ccc3[nH]nc(-c4cc(N5CCN(C(=O)CCOCCOCCOCCOCCNc6cccc7c6C(=O)N(C6CCC(=O)NC6=O)C7)CC5)ncn4)c3c2)CC1 (centres undefined) for Leucine-rich repeat serine/threonine-protein kinase 2 (Homo sapiens).
3

Identify the measured IC50 of `Cc1ncsc1-c1ccc([C@@H](C)NC(=O)[C@H]2C[C@H](O)CN2C(=O)[C@H](NC(=O)CCOCCOCCOCCC(=O)N2CCN(c3cc(-c4n[nH]c5ccc(OC6(C)CC6)cc45)ncn3)CC2)C(C)(C)C)cc1` for Leucine-rich repeat serine/threonine-protein kinase 2 (Homo sapiens).
6
